- System: glyphosate resistant Conyza canadensis (L.) (ERICA), horseweed
- PROTOCOL NOTES: Postemergence herbicide evaluation, growth of Conyza canadensis (ERICA)
- Format: in vivo
- SETUP CONDITIONS: Erigeron canadensis, post-emergence, 168 h, 280 g ae/ha, 7 DAA, percent reduction in plant size vs untreated control; read-out: Ave. ERICA
MEASUREMENT TYPE: pest or weed control at 280 g/ha

Solved entries:
C=CCONC(=O)COc1ccc(Cl)cc1Cl
82.5%
O=C(COc1ccc(Cl)cc1Cl)Nc1cccnc1
67.5%

In: Tell me the measured pest or weed control at 280 g/ha of "O=C(COc1ccc(Cl)cc1Cl)Oc1ccccn1" , please.
Out: 82.5%

* * *

- System: Ambrosia artemisiifolia (AMBEL), common ragweed
- PROTOCOL NOTES: Postemergence herbicide evaluation, growth of Ambrosia artemisiifolia (AMBEL)
- Assay type: in vivo
- SETUP CONDITIONS: Ambrosia artemisiifolia, post-emergence, 168 h, 560 g ae/ha, 7 DAA, percent reduction in plant size relative to untreated control; read-out: AVE. AMBEL
MEASUREMENT TYPE: pest or weed control at 560 g/ha (%)
Give bare numbers, in %.

Solved entries:
O=C(COc1ccc(Cl)cc1Cl)ON1C(=O)c2ccccc2C1=O
75
CN(NC(=O)COc1ccc(Cl)cc1Cl)C(=O)c1ccccc1
73

Give pest or weed control at 560 g/ha for each listed item.
1. Cc1ccc(S(=O)(=O)NC(=O)COc2ccc(Cl)cc2Cl)cc1
2. O=C(COc1ccc(Cl)cc1Cl)NOc1ccccc1
3. O=C(COc1ccc(Cl)cc1Cl)ON1CCCCC1
4. N/C(Cc1ccccc1)=N\OC(=O)COc1ccc(Cl)cc1Cl

Out:
1. 65
2. 73
3. 78
4. 80

* * *

- Tested on: Chenopodium album (CHEAL), common lambsquarters
- PROTOCOL NOTES: Postemergence herbicide evaluation, growth of Chenopodium album (CHEAL)
- Type: in vivo
- SETUP CONDITIONS: Chenopodium album, post-emergence, 504 h, 560 g ae/ha, 21 DAA, percent reduction in plant size vs untreated control; read-out: Ave. CHEAL
MEASUREMENT TYPE: pest or weed control at 560 g/ha (%)
Answers are plain numbers, in %.

COc1ncc(OC(=O)COc2ccc(Cl)cc2Cl)cn1 [Compound E12]
87.5
O=C(COc1cc(Cl)cc(Cl)c1)OCCCOC(=O)COc1ccc(Cl)cc1Cl [Compound B7]
87.5
O=C(COc1ccc(Cl)cc1Cl)Oc1ccccn1 [Compound E11]
100

Could you now consider this next compound?
In: Tell me the measured pest or weed control at 560 g/ha of COc1ccc(CONC(=O)COc2ccc(Cl)cc2Cl)cc1 [Compound D20] , please.
Out: 95
